- Tested on: KM12 colon
- experimental_protocol: NCI-60 one-dose screen, 48 h (100 = growth as untreated, 0 = no growth, -100 = all killed)
- condition_notes: 10 µM unless noted
The panel holds about 83,000 compounds, 20% with a hit somewhere; the sample as a whole holds those more often.
observable: growth (%)
Could you give me the number in %? Just the number is fine.

Consider the following illustrative entries.
INSERT INTO results (compound, value_observed) VALUES
  ('Cc1ccc(-c2nn(-c3ccccc3)cc2/C=C/C(=O)c2ccc(NC(=O)CCCCCCC(=O)NO)cc2)cc1', 78.2),
  ('Cc1ccc(NC(=O)N[C@@H](Cc2cc(F)cc(F)c2)C(=O)NC2C(=O)N3C[C@H](O)C[C@H]3C(=O)N3CCCC[C@H]3C(=O)N[C@@H](CO)C(=O)N3C[C@H](C)C[C@H]3C(=O)O[C@H]2C)c(F)c1 (some centres undefined)', 45.3);

So for COc1ccc(Oc2ccc(/C=N/NC(=O)CSc3nc4ccccc4c(=O)n3-c3ccc(Cl)cc3)cc2)cc1 , the logged growth turned out to be 77.2

So for CCn1c(SCC(=O)Nc2cccc(C(=O)/C=C/c3cc(OC)c(OC)c(OC)c3)c2)nc2ccccc2c1=O , the logged growth turned out to be 44.6

* * *

- System: A549/ATCC NSCLC
- experimental_protocol: NCI-60 one-dose screen, 48 h (100 = growth as untreated, 0 = no growth, -100 = all killed)
- condition_notes: 10 µM unless noted
This is part of a sample that, as a whole, favours compounds with a hit. Of some 83,000 tested, about 20% had one in any assay. Active and inactive are the calls of the source. Rule for the calls: active = growth percent below 10; inactive = the rest.
Listed next: entries and their corresponding growth.

INSERT INTO measurements (mol, observable, value_observed) VALUES
  ('COc1cc(OC)c(S(N)(=O)=O)cc1C(C)=O', 'growth', '104% (inactive)');

So for O=C(c1ccc(O)c(C(=O)N2Cc3ccc(OCCC[P+](c4ccccc4)(c4ccccc4)c4ccccc4)cc3C2)c1)N1Cc2cccc(F)c2C1 , the logged growth turned out to be 99.8% (inactive)

So for Cc1noc(C)c1CSc1nc2ccccc2n1-c1ccccc1 , the logged growth turned out to be 91.2% (inactive)

So for O=C(CSc1nnc(-c2ccc(Cl)cc2)n1-c1ccccc1)Nc1ccc(Br)cc1 , the logged growth turned out to be 4.69% (active)

So for COc1cc(OC)c(/C=C/S(=O)(=O)Cc2ccc(OC)c(NC(=O)CCC(=O)NO)c2)c(OC)c1 , the logged growth turned out to be 24.6% (inactive)

So for C#Cc1nc(C(C)=O)cs1 , the logged growth turned out to be 108% (inactive)

So for N=c1c2cc(-c3ccccc3)oc2ncn1/N=C/c1ccc(Cl)cc1 , the logged growth turned out to be 41.7% (inactive)

So for Cc1nc2ncc(-c3ccc4ncnc(NCc5ccccc5)c4c3)cc2[nH]1 , the logged growth turned out to be 77.5% (inactive)

So for CCN(CC)c1cn(-c2ccc(S(N)(=O)=O)cc2)nn1 , the logged growth turned out to be 105% (inactive)

So for Cc1ccc(-n2cc(/C=N/NC(=O)c3ccncc3)c(-c3ccc(S(C)(=O)=O)cc3)n2)cc1 , the logged growth turned out to be 103% (inactive)

* * *

- Test system: HS 578T breast
- experimental_protocol: NCI-60 one-dose screen, 48 h
- condition_notes: 10 µM unless noted
- Method: Growth inhibition of the HS 578T human tumor cell line is measured as a screen for anti-cancer activity. Cells are grown in 96 well plates and exposed to the test compound for 48 hours. Compounds are tested at a single concentration, which is 10^-5 M for most compounds. The reported endpoint is percent growth (GI% or GIPRCNT), where numbers from 0 - 100% represent growth inhibition, and numbers from -100% - 0 represent cell death. For example, a value of 40 represents 60% growth inhibition. […]
The panel holds about 83,000 compounds, 20% with a hit somewhere; the sample as a whole holds those more often. The source made the active and inactive calls. How the source made its calls: active means growth percent below 10; inactive means the rest.
// allowed return values: active, inactive

Solved cases below.
INSERT INTO measurements (molecule, group_label) VALUES
  ('C=C(C)[C@@H]1CC[C@]2(COCCCNCCC#N)CC[C@]3(C)[C@H](CC[C@@H]4[C@@]5(C)CC[C@H](OCCCNCCC#N)C(C)(C)[C@@H]5CC[C@]43C)[C@@H]12', 'inactive'),
  ('Nc1ncc(-c2ccc(NS(=O)(=O)c3ccc(Cl)c(Cl)c3)cc2)[nH]1', 'inactive'),
  ('CCCCCc1ccc(S(=O)(=O)Nc2cc(-c3csc(NC(=O)CN4CCN(C)CC4)n3)ccc2OC)cc1', 'active');

What was the test verdict on Oc1[nH]c2ccccc2c1Nn1c(N=N/C=c2/ccc3c(c2)C=NN=3)n[nH]c1=S ? inactive

What was the test verdict on NC(N)=Nc1ccc(Oc2cccc(Nc3ccc(Cl)c(C(F)(F)F)c3)c2)cc1 ? inactive

What was the test verdict on CC/C(=C/c1cc(OC)ccc1O)c1ccc2cc(OC)ccc2[o+]1 ? inactive

What was the test verdict on Cc1ccc(N2C(=O)/C(=C/C=C/c3ccco3)SC2=S)cc1 ? inactive

What was the test verdict on CC(=O)c1ccc(Nc2nc(SCC(C)C)nc(-c3ccccc3)c2C#N)cc1 ? inactive

What was the test verdict on CC(=O)N1C(=S)NC(=O)C1CC(C)C (centres undefined) ? inactive

* * *

- Test system: UO-31 renal
- experimental_protocol: NCI-60 one-dose screen, 48 h
- condition_notes: 10 µM unless noted
Compounds without any hit were thinned out: in the full panel of roughly 83,000, 20% have a hit. Active and inactive are the calls of the source. How the source made its calls: active means growth percent below 10; inactive means the rest.
// allowed return values: Yes (active), No (inactive)

Solved cases below.
INSERT INTO measurements (mol, group_label) VALUES
  ('Clc1nc2ccccc2nc1-c1nnc(C2CCCCC2)o1', 'No'),
  ('O=S(=O)(Oc1ccc(-c2nnc(Nc3ccccc3)s2)cc1)C(F)(F)C(F)(F)C(F)(F)C(F)(F)C(F)(F)C(F)(F)F', 'No'),
  ('N#Cc1ccccc1Cn1c2nc(=N)c3ccccc3c-2nc2ccccc21', 'No');

What was the test verdict on NC(N)=Nc1ccc(Oc2cccc(Oc3ccc(Cl)c(C(F)(F)F)c3)c2)cn1 ? No

What was the test verdict on N#C/C(=C\c1ccc(-c2ccc(Cl)cc2Cl)o1)c1ccc(F)cc1 ? No

What was the test verdict on O=S(=O)(NCCCNc1nccc(-c2[nH]c(-c3ccccc3)nc2-c2ccc(Cl)c(O)c2)n1)c1cccc(F)c1 ? No

What was the test verdict on Cc1nn(-c2ccccc2)c2ncnc(N/N=C/c3ccccc3O)c12 ? Yes

What was the test verdict on COc1ccc2c(c1)c(-c1cc(N)n3nc(-c4cn(C)c5ccc(OC)cc45)cc3n1)cn2C ? No

What was the test verdict on Cn1ccnc1C(=O)/C=C/c1ccc(CNC(=O)c2ccc(Cl)cc2)cc1 ? Yes

* * *

- System: TK-10 renal
- experimental_protocol: NCI-60 one-dose screen, 48 h (100 = growth as untreated, 0 = no growth, -100 = all killed)
- condition_notes: 10 µM unless noted
About 83,000 compounds went through this panel and 20% of them were active in at least one assay; those are over-represented in the sample as a whole.
Mark True for growth under 80%, False if at or over.

Solved cases below.
INSERT INTO measurements (compound, group_label) VALUES
  ('C=C(C)[C@@H]1CC[C@]2(COCCCNCCC#N)CC[C@]3(C)[C@H](CC[C@@H]4[C@@]5(C)CC[C@H](OCCCNCCC#N)C(C)(C)[C@@H]5CC[C@]43C)[C@@H]12', 'True'),
  ('N#Cc1cccc(CN2CCC3=C(C2)C(=O)N(Cc2ccc(Cl)cc2)C2=NCCCN23)c1', 'True'),
  ('CCc1ccc(SC2c3ccc(N(CC)CC)cc3Oc3nc(N)c(C#N)c(N)c32)cc1 (stereo not drawn)', 'True'),
  ('CCOC(=O)C1=NNC(c2ccc(Cl)cc2)C1C(=O)N1C(=S)NC(=O)C1CC(C)C (stereo not drawn)', 'False'),
  ('c1ccc(C(c2nc3ncncc3[nH]2)N2CSc3nc4ccccc4n3C2)cc1 (stereo not drawn)', 'False');

# TODO verify growth < 80% strictly for this compound: COc1ccccc1NC1=C(Cl)C(=O)c2nc(C)ccc2C1=O False

# TODO verify growth < 80% strictly for this compound: N#Cc1cccc(CN2CCC3=C(C2)C(=O)N(Cc2ccc(Cl)cc2)C2=NCCN23)c1 True

# TODO verify growth < 80% strictly for this compound: COc1cc2nc(Cl)nc(Nc3cccc(C4=Nc5c(N)nc(N)nc5NC(c5ccc(F)cc5)C4)c3)c2cc1OC (stereo not drawn) False

# TODO verify growth < 80% strictly for this compound: COc1c(N2CC3CCCNC3C2)c(F)cc2c(=O)c(C(=O)N/N=C/c3ccc4c(c3)OCO4)cn(C3CC3)c12 (stereo not drawn) False

# TODO verify growth < 80% strictly for this compound: O=C(CCn1cc[n+](CC(=O)c2ccc(-c3ccccc3)cc2)c1)Nc1cccc2cccnc12 False
